molecular target: DCN1 (Homo sapiens, UniProt Q96GG9); assay: Intact-protein mass spectrometric analysis of covalent complex formation, Method A; assay type: binding
Sequence (Q96GG9 58-259 limits assumed): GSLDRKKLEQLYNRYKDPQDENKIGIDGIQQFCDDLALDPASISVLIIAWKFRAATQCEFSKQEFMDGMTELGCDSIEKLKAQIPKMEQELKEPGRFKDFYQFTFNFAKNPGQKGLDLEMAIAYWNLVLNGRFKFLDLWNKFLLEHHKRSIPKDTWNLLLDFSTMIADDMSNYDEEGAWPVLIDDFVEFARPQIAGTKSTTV
MEASURED_PARAMETER: covalent complex formation / reaction kinetics with DCN1 protein (in words)

| SMI | ASSAY_TARGET | RESULT |
| --- | --- | --- |
| C=CC(=O)NC[C@@H](NC(=O)[C@H](Cc1nc2ccc(C(C)C)cc2s1)NC(=O)CC)C1CCCCC1 | DCN1 (Homo sapiens, UniProt Q96GG9) | slow reaction kinetics |
| CCC(=O)N[C@@H](Cc1nc2ccc(C(C)C)cc2s1)C(=O)N[C@H](CNC(=O)CCl)C1CCCCC1 | DCN1 (Homo sapiens, UniProt Q96GG9) | slow reaction kinetics |

These measurements were taken from paper PMC8113459.
